Test system: E. coli TESEC Mtb Asd
Experiment: growth (OD600 after 10 h); higher = more growth (less inhibition)
Details: arabinose induction (level): High; compound 0.1 mM; raw OD600 reference: median of DMSO wells 0.331, cell-free background 0.041
Where a name gives a salt, the structure may show the parent alone.
growth reference

{"COMPOUND": "CCCCC1C(=O)N(c2ccccc2)N(c2ccc(O)cc2)C1=O (stereo not drawn) [Oxyphenbutazone]", "TARGET": "E. coli TESEC Mtb Asd", "growth": 0.366}
{"COMPOUND": "O=C(O)Cc1ccccc1Nc1c(Cl)cccc1Cl [Diclofenac sodium]", "TARGET": "E. coli TESEC Mtb Asd", "growth": 0.172}
{"COMPOUND": "COc1cc(C(=O)NCc2ccc(OCCN(C)C)cc2)cc(OC)c1OC [Trimethobenzamide hydrochloride]", "TARGET": "E. coli TESEC Mtb Asd", "growth": 0.227}
{"COMPOUND": "Nc1nc(Cl)nc2c1ncn2[C@H]1C[C@H](O)[C@@H](CO)O1 [Cladribine]", "TARGET": "E. coli TESEC Mtb Asd", "growth": 0.409}
{"COMPOUND": "COC(=O)C1=C(C)NC(C)=C(C(=O)OC2CCCN(Cc3ccccc3)C2)C1c1cccc([N+](=O)[O-])c1 (stereo not drawn) [Benidipine hydrochloride]", "TARGET": "E. coli TESEC Mtb Asd", "growth": 0.162}
{"COMPOUND": "Cc1cccc(C)c1NC(=O)C(C)N (stereo not drawn) [Tocainide hydrochloride]", "TARGET": "E. coli TESEC Mtb Asd", "growth": 0.209}
{"COMPOUND": "COc1ccccc1O [Guaiacol]", "TARGET": "E. coli TESEC Mtb Asd", "growth": 0.212}
{"COMPOUND": "Cc1nnc(NS(=O)(=O)c2ccc(N)cc2)s1 [Sulfamethizole]", "TARGET": "E. coli TESEC Mtb Asd", "growth": 0.326}
{"COMPOUND": "CCOC(=O)C1=C(C)NC(C)=C(C(=O)OC)C1c1cccc(Cl)c1Cl (stereo not drawn) [Felodipine]", "TARGET": "E. coli TESEC Mtb Asd", "growth": 0.0579}
{"COMPOUND": "CCOC(=O)OC(C)OC(=O)[C@@H]1N2C(=O)[C@@H](NC(=O)[C@H](N)c3ccccc3)[C@H]2SC1(C)C (stereo partly drawn) [Bacampicillin hydrochloride]", "TARGET": "E. coli TESEC Mtb Asd", "growth": 0.237}
{"COMPOUND": "CN(C)CCCN1c2ccccc2Sc2ccc(C(F)(F)F)cc21 [Triflupromazine hydrochloride]", "TARGET": "E. coli TESEC Mtb Asd", "growth": 0.0504}
{"COMPOUND": "CC/C(=C(/CC)c1ccc(O)cc1)c1ccc(O)cc1 [Diethylstilbestrol]", "TARGET": "E. coli TESEC Mtb Asd", "growth": 0.169}
{"COMPOUND": "C=C1C(=O)O[C@H]2[C@H]1CC/C(C)=C/CC[C@@]1(C)O[C@@H]21 [Parthenolide]", "TARGET": "E. coli TESEC Mtb Asd", "growth": 0.155}
{"COMPOUND": "CCCC1C(=O)N2C(N(C)C)=Nc3ccc(C)cc3N2C1=O (stereo not drawn) [Azapropazone]", "TARGET": "E. coli TESEC Mtb Asd", "growth": 0.195}
{"COMPOUND": "CN1CCN(C2=Nc3ccccc3Oc3ccc(Cl)cc32)CC1 [Loxapine succinate]", "TARGET": "E. coli TESEC Mtb Asd", "growth": 0.201}
{"COMPOUND": "Nc1ccc(O)c(C(=O)O)c1 [Mesalamine]", "TARGET": "E. coli TESEC Mtb Asd", "growth": 0.339}
{"COMPOUND": "NC12CC3CC(CC(C3)C1)C2 [Adamantamine fumarate]", "TARGET": "E. coli TESEC Mtb Asd", "growth": 0.353}
{"COMPOUND": "CCOC(=O)OC(C)OC1=C(C(=O)Nc2ccccn2)N(C)S(=O)(=O)c2ccccc21 (stereo not drawn) [Ampiroxicam]", "TARGET": "E. coli TESEC Mtb Asd", "growth": 0.237}
